# experimental.target: biotinylated truncated STAT6 (123-632)-avi (Homo sapiens, UniProt P42226)
# Construct: 0.15 nM biotinylated truncated STAT6 (123-632)-avi purified from E. coli
# test: STAT6 HTRF binding assay
# test.conditions: 0.15 nM STAT6 (123-632)-avi, 20 nM fluorescein-labeled probe, 30 minutes at room temperature
pIC50: −log10 of the molar value.
readout.type: pIC50

Measured pIC50, CN(C)C(=O)c1cc2ccc(C3=CCCN(C(=O)C4Cc5c(cccc5OCCOCCOCCOCCc5cccc6c5n(C)c(=O)n6C5CCC(=O)NC5=O)CN4C=O)C3)cc2[nH]1 (centres unmarked) : 4.00 to 5.00

// sample COc1cc(N2CCN(CCc3cccc4c3n(C)c(=O)n4C3CCC(=O)NC3=O)CC2)ccc1-c1cc(-c2cccc(C(=O)N(C)C)c2)c(F)c2[nH]c(C(=O)N(C)C)cc12 (centres unmarked) , its pIC50 was 5.00 to 6.00

Short answer for COc1cc(N2CCN(CCc3cccc4c3n(C)c(=O)n4C3CCC(=O)NC3=O)CC2)ccc1-c1cc(NC(=O)CCn2ccnn2)ccc1-c1ncc(C(=O)N(C)C)[nH]1 (centres unmarked) : pIC50 was 4.00 to 5.00

# pIC50 of COc1cc(N2CCN(CCc3cccc4c3n(C)c(=O)n4C3CCC(=O)NC3=O)CC2)ccc1-c1cc(C2=CCCN(C(=O)CCn3ccnn3)C2)ccc1C(=O)N(C)C (centres unmarked) = 4.00 to 5.00

Consider COc1cc(N2CCN(CCc3cccc4c3n(C)c(=O)n4C3CCC(=O)NC3=O)CC2)ccc1-c1cc(Nc2ccccn2)c(F)c(C2=CCCN(C(=O)CCn3ccnn3)C2)c1 (centres unmarked) . Its measured pIC50 is 6.00 to 7.00

###

For each entry below, report its Dmax value.
# experimental.target: STAT6 (Homo sapiens)
# Construct: endogenous in cells; host or cells: A549 (STAT6-HiBiT), endogenous locus tagged
# Sequence (P42226 1-847): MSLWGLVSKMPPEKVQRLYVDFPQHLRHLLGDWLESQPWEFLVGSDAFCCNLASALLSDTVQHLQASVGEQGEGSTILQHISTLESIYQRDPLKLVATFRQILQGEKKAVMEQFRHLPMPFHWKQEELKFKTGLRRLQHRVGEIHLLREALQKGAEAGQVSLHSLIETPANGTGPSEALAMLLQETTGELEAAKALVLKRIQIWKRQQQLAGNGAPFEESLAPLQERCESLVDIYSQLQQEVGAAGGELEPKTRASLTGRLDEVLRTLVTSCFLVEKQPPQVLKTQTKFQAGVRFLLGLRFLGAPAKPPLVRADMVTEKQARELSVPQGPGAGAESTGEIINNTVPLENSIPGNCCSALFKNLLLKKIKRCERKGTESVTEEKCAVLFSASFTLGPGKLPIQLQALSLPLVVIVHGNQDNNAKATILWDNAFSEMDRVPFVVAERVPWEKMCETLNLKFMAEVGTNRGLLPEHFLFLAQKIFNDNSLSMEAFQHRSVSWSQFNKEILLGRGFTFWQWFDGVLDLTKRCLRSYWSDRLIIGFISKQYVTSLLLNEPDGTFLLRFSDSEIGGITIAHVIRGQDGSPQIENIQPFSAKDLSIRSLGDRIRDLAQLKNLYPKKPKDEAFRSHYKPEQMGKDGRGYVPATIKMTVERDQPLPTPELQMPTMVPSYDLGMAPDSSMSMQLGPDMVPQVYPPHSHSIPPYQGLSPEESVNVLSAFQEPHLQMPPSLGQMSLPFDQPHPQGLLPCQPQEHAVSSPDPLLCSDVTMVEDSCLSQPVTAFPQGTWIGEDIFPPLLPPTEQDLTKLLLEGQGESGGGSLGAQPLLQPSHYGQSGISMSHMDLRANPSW
# test: STAT6 HiBiT degradation in A549 (STAT6-HiBiT) cells
# Format: cell-based
# test.conditions: 24 h

Recorded Dmax (molecule COc1cc(N2CCN(CCc3cccc4c3n(C)c(=O)n4C3CCC(=O)NC3=O)CC2)ccc1-c1cc(C2=CCCN(C(=O)CCn3ccnn3)C2)ccc1C(=O)N(C)C (stereo not shown) [I-1282] ): < 50%

Record COc1cc(N2CCN(CCc3cccc4c3n(C)c(=O)n4C3CCC(=O)NC3=O)CC2)ccc1-c1cc(C2=CCCN(C(=O)CCn3ccnn3)C2)c(F)c2ccncc12 (stereo not shown) [I-1271] , field Dmax: < 50%

The recorded Dmax for entry COc1cc(N2CCN(CCc3cccc4c3n(C)c(=O)n4C3CCC(=O)NC3=O)CC2)ccc1-c1cc(C2=CCCN(C(=O)CCn3ccnn3)C2)ccc1-n1ccccc1=O (stereo not shown) [I-1309] equals < 50%

molecule COc1cc(N2CCN(CCc3cccc4c3n(C)c(=O)n4C3CCC(=O)NC3=O)CC2)ccc1-c1cc(C2CCCCN(C(=O)CCn3ccnn3)C2)c(F)c2[nH]c(C(=O)N(C)C)cc12 (stereo not shown) [I-1292] , Dmax observed: > 90%

Form field Dmax, entry COc1cc(N2CCN(CCc3cccc4c3n(C)c(=O)n4C3CCC(=O)NC3=O)CC2)ccc1-c1cc(NC(=O)CCn2ccnn2)ccc1-c1ncc(C(=O)N(C)C)[nH]1 (stereo not shown) [I-1324] : < 50%

Noted for COc1cc(N2CCN(CCc3cccc4c3n(C)c(=O)n4C3CCC(=O)NC3=O)CC2)ccc1-c1cc(Nc2ccccn2)c(F)c(C2=CCCN(C(=O)CCn3ccnn3)C2)c1 (stereo not shown) [I-1272] : its Dmax reads > 90%

Memo: COc1cc(N2CCN(CCc3cccc4c3n(C)c(=O)n4C3CCC(=O)NC3=O)CC2)ccc1-c1cc(C2=CCCN(C(=O)CCn3ccnn3)C2)c(F)c2cnccc12 (stereo not shown) [I-1270] , reported Dmax: < 50%

Consider COc1cc(N2CCN(CCc3cccc4c3n(C)c(=O)n4C3CCC(=O)NC3=O)CC2)ccc1-c1cc(C2=CCCN(C(=O)CCn3ccnn3)C2)cc2c1CN(C(=O)N(C)C)C2 (stereo not shown) [I-1334] . Its measured Dmax is 70 to 90%

Value of measured Dmax for the entry COc1cc(N2CCN(CCc3cccc4c3n(C)c(=O)n4C3CCC(=O)NC3=O)CC2)ccc1-c1cc(C(=O)N(C)C)ccc1C1=CCCN(C(=O)CCn2ccnn2)C1 (stereo not shown) [I-1323] : 70 to 90%

Reported Dmax ( COc1cc(N2CCN(CCc3cccc4c3n(C)c(=O)n4C3CCC(=O)NC3=O)CC2)ccc1-c1cc(-c2cccc(C(=O)N(C)C)c2)c(F)c2[nH]c(C(=O)N(C)C)cc12 (stereo not shown) [I-1302] ) = 70 to 90%

// Dmax value for COc1cc(N2CCN(CCc3cccc4c3n(C)c(=O)n4C3CCC(=O)NC3=O)CC2)ccc1-c1cc(C2=CCCN(C(=O)CCn3ccnn3)C2)cc2ccc(C(=O)N(C)C)cc12 (stereo not shown) [I-1293] : > 90%

Reported Dmax for COc1cc(N2CCN(CCc3cccc4c3n(C)c(=O)n4C3CCC(=O)NC3=O)CC2)ccc1-c1cc(C2=CCCN(C(=O)CCn3ccnn3)C2)cnc1CNC(=O)N(C)C (stereo not shown) [I-1336] was < 50%

// Dmax value for COc1cc(N2CCN(CCc3cccc4c3n(C)c(=O)n4C3CCC(=O)NC3=O)CC2)ccc1-c1cc(C2=CCCN(C(=O)CCn3ccnn3)C2)cc2cc(C(=O)N(C)C)cnc12 (stereo not shown) [I-1338] : < 50%
